- studySystem: UniProtKB Q9NR96
- Sequence (Q9NR96 26-1032): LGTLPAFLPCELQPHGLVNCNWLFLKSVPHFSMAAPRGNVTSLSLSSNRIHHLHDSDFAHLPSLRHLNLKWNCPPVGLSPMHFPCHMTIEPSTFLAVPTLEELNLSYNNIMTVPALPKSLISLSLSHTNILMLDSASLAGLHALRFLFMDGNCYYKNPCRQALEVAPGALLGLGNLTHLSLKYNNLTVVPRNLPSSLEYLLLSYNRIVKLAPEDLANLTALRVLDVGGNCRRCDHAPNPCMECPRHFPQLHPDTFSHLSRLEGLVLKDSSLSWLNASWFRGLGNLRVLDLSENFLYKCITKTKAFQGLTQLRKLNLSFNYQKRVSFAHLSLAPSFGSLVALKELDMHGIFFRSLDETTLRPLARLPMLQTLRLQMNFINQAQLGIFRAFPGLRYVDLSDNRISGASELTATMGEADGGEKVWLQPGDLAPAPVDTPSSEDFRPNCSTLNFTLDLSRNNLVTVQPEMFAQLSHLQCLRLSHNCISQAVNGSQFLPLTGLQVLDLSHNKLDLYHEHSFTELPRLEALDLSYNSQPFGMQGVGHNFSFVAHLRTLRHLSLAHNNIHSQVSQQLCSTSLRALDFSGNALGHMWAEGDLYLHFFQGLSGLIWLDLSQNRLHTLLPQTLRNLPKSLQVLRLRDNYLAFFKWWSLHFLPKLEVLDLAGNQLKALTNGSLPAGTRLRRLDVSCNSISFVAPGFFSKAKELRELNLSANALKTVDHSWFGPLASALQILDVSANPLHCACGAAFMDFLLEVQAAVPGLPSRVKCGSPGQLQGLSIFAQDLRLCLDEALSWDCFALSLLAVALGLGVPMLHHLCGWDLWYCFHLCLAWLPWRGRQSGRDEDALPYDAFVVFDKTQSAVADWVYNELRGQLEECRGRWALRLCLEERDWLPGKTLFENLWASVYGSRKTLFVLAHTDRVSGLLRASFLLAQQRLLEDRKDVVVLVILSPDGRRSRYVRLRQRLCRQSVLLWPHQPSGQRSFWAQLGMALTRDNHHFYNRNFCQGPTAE
- measurementProtocol: TLR9 inhibition reporter assay (HEK-Blue cells, SEAP reporter, ODN2006 stimulation)
- protocolConditions: HEK-Blue cells overexpressing human TLR9, SEAP reporter, ODN2006 5 nM
pIC50: −log10 of the molar value.
Listing of entries alongside the reported pIC50.

Task: For the compound COc1cc(-c2[nH]nc(C(=O)NCC3CCNCC3)c2C(C)C)cn2ncnc12 [Example 62] , report pIC50.
Result: < 4.30

Task: For the compound Cc1cc(-c2[nH]nc(C(=O)NC3CN(C(C)C)C3)c2C(C)C)cn2ncnc12 [Example 155] , report pIC50.
Result: < 4.30

Task: For the compound Cc1cc(-c2[nH]nc(-c3ccc4c(c3)CCN(CC(N)=O)C4)c2C(C)C)cn2ncnc12 [Example 272] , report pIC50.
Result: < 4.30

Task: For the compound COc1cc(-c2[nH]nc(-c3cnc(C4CCNCC4)cn3)c2C(C)C)cn2ncnc12 [Example 345] , report pIC50.
Result: < 4.30
